tested.on: AktK (Homo sapiens)
Sequence (P31749 whole entry): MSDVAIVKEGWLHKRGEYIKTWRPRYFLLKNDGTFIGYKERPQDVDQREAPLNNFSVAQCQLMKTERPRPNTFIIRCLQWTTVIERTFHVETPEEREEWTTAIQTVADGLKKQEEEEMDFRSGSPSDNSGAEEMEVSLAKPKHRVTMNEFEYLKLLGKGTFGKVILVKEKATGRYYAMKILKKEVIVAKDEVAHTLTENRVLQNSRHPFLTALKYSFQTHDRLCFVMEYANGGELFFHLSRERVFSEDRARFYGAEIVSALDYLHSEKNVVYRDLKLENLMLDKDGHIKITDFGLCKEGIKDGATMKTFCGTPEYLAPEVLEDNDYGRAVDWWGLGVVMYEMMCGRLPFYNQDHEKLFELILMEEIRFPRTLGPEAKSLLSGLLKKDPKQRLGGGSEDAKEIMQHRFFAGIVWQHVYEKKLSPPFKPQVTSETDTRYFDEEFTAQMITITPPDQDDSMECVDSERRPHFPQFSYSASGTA
assay.method.text: Luciferase-coupled chemiluminescence kinase assay (ATP consumption)
Assay type: biochemical
settings: Table 1; class symbols per key; read-out: AKT-1 IC50
Recorded IC50 for the following molecules

Here's what some known entries look like.
1. Cc1c(Br)cc(OCC(F)(CF)CF)cc1N1CCN(c2ncnc3[nH]nc(Br)c23)CC1 [Entry 250] = 100 to 1000 nM
2. Cc1c(NCCN2CCCC2)cc(Cl)cc1N1CCN(c2ncnc3[nH]nc(C4CC4)c23)CC1 [Entry 161] = 100 to 1000 nM
3. CCc1n[nH]c2ncnc(N3CCN(c4cc(Cl)cc(CCCN5CCN(C)CC5)c4C)CC3)c12 [Entry 62] = 100 to 1000 nM
4. CCCC(O)c1cc(NCCN2CCCC2)c(C)c(N2CCN(c3ncnc4[nH]nc(Br)c34)CC2)c1 (centres unmarked) [Entry 286] = < 100 nM
5. Cc1cc(N2CCN(c3ncnc4[nH]nc(Br)c34)CC2)c2ccccc2n1 [Entry 120] = ≥ 10000 nM
6. CCN(CC)CCCOc1nc(Cl)nc(N2CCN(c3ncnc4[nH]nc(Br)c34)CC2)c1C [Entry 149] = 1000 to 10000 nM
7. Brc1n[nH]c2ncnc(N3CCN(c4nccc(-c5ccco5)n4)CC3)c12 [Entry 143] = ≥ 10000 nM

Per the record, Cc1c(NCCN2CCCC2)cc(Br)cc1N1CCN(c2ncnc3[nH]nc(Br)c23)CC1 [Entry 271] has IC50 of < 100 nM

###

tested.on: AktK (Homo sapiens)
assay.method.text: Luciferase-coupled chemiluminescence kinase assay (ATP consumption)
Type: biochemical
settings: Table 1; class symbols per key; read-out: AKT-1 IC50
pIC50: −log10 of the molar value.
result.type: pIC50

1. CCc1n[nH]c2ncnc(N3CCN(c4ncnc5cc(OC)c(OC)cc45)CC3)c12 = ≤ 5.00
2. Cc1c(NCCN2CCCC2)cc(OCC2CCCCC2)cc1N1CCN(c2ncnc3[nH]nc(Br)c23)CC1 = 6.00 to 7.00
3. Cc1c(NCCN2CCCC2)cc(C(=O)N(C)C(C)C)cc1N1CCN(c2ncnc3[nH]nc(Br)c23)CC1 = 6.00 to 7.00
4. Cc1c(NCCN2CCCC2)cc(OCC2CC2)cc1N1CCN(c2ncnc3[nH]nc(Br)c23)CC1 = > 7.00
5. CCc1n[nH]c2ncnc(N3CCN(c4cc(OCC(F)(CF)CF)cc(Br)c4C)CC3)c12 = 6.00 to 7.00
6. Cc1c(NCCN2CCCC2)cc(C(=O)Nc2ccccc2Cl)cc1N1CCN(c2ncnc3[nH]nc(Br)c23)CC1 = > 7.00
7. CN(C)CCOc1nccnc1N1CCN(c2ncnc3[nH]nc(Br)c23)CC1 = 5.00 to 6.00

Shifting focus to the compound that follows.
Per the record, Cc1c(NCCN(C)C)cc(OCC(F)(CF)CF)cc1N1CCN(c2ncnc3[nH]nc(Br)c23)CC1 has pIC50 of > 7.00

###

Recorded IC50 for the following compounds
tested.on: UniProtKB P23443
assay.method.text: Luciferase-coupled chemiluminescence kinase assay (ATP consumption)
Assay type: biochemical
settings: Table 1; class symbols per key
Method: One measure of inhibition is Ki. […] The Ki for a compound is determined from the IC50 based on three assumptions. First, only one compound molecule binds to the enzyme and there is no cooperativity. […] Kinase activity is measured as the percent of ATP consumed following the kinase reaction using luciferase-luciferin-coupled chemiluminescence. […] Total ATP consumption was limited to 25-60% and the IC50 values correlate well with those determined by radiometric assays.

1. Cc1ccc(Cl)cc1N1CCN(c2ncnc3[nH]nc(Br)c23)CC1=O = < 100 nM
2. CCc1n[nH]c2ncnc(N3CCN(c4ccccc4)CC3)c12 = 100 to 1000 nM
3. CNC(=O)c1ccc(C)c(N2CCN(c3ncnc4[nH]nc(Br)c34)CC2)c1 = < 100 nM
4. FC(F)(F)c1ccnc(N2CCN(c3ncnc4[nH]nc(Br)c34)CC2)n1 = 100 to 1000 nM
5. Cc1c(NCCN2CCCC2)cc(CCc2ccccc2)cc1N1CCN(c2ncnc3[nH]nc(Br)c23)CC1 = < 100 nM
6. CCS(=O)(=O)c1cc(NCCN2CCCC2)c(C)c(N2CCN(c3ncnc4[nH]nc(Br)c34)CC2)c1 = < 100 nM

Per the record, Brc1n[nH]c2ncnc(N3CCN(c4nccnc4OCCN4CCCCC4)CC3)c12 has IC50 of 100 to 1000 nM

Per the record, CCc1n[nH]c2ncnc(N3CCN(c4ncccc4C(N)=O)CC3)c12 has IC50 of 100 to 1000 nM

Per the record, O=C(COc1cccc(N2CCN(c3ncnc4[nH]nc(Br)c34)CC2)c1)NC1CC1 has IC50 of < 100 nM

Per the record, Cc1c(Br)cc(C(=O)Nc2ccccc2)cc1N1CCN(c2ncnc3[nH]nc(Br)c23)CC1 has IC50 of < 100 nM

Per the record, Cc1c(OCCC2CCN(C)CC2)cc(Cl)cc1N1CCN(c2ncnc3[nH]nc(C(F)(F)F)c23)CC1 has IC50 of < 100 nM

Per the record, Cc1c(NCCN2CCCC2)cc(CCC(C)(C)C)cc1N1CCN(c2ncnc3[nH]nc(Br)c23)CC1 has IC50 of < 100 nM

###

tested.on: p70S6K (Homo sapiens)
Sequence (P23443 whole entry): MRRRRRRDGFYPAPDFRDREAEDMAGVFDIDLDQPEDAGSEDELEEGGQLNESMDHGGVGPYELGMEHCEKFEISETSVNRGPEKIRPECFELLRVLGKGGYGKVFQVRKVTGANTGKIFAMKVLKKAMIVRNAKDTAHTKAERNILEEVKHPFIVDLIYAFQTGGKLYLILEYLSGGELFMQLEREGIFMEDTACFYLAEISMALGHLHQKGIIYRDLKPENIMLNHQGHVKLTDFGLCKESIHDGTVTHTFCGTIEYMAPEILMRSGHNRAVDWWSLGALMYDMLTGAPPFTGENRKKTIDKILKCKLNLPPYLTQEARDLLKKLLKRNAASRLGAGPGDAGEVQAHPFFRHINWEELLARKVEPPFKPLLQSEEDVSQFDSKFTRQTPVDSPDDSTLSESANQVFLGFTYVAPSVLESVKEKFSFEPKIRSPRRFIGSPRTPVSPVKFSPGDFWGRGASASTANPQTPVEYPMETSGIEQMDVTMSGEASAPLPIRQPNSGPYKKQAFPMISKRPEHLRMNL
assay.method.text: Luciferase-coupled chemiluminescence kinase assay (ATP consumption)
Assay type: biochemical
settings: Table 1; class symbols per key
result.type: IC50

Here's what some known entries look like.
1) Cc1ccc(N2CCN(c3ncnc4[nH]nc(Br)c34)CC2)cc1C = 100 to 1000 nM
2) Cc1ccc(-c2ccccc2OCCN2C(=O)CCC2=O)cc1N1CCN(c2ncnc3[nH]nc(Br)c23)CC1 = < 100 nM
3) Cc1c(OCCN2CCCCC2)cc(Cl)cc1N1CCN(c2ncnc3[nH]nc(Br)c23)CC1 = < 100 nM
4) Cc1c(NCCN2CCCC2)cc(C(=O)CCC(F)(F)F)cc1N1CCN(c2ncnc3[nH]nc(Br)c23)CC1 = < 100 nM
5) CCc1n[nH]c2ncnc(N3CCN(c4cc(OCC(F)(CF)CF)cc(Br)c4C)CC3)c12 = < 100 nM
6) Cc1cccc(COc2cccc(N3CCN(c4ncnc5[nH]nc(Br)c45)CC3)c2)c1 = 100 to 1000 nM
7) CC(=O)c1cc(NCCN2CCCC2)c(C)c(N2CCN(c3ncnc4[nH]nc(Br)c34)CC2)c1 = < 100 nM
8) Brc1ccc(N2CCN(c3ncnc4[nH]nc(Br)c34)CC2)cc1 = 100 to 1000 nM

Shifting focus to the compound that follows.
For Cc1c(NCCN2CCCC2)cc(OCC(C)(C)F)cc1N1CCN(c2ncnc3[nH]nc(Br)c23)CC1 on p70S6K (Homo sapiens), measured IC50 was < 100 nM

###

tested.on: AktK (Homo sapiens)
assay.method.text: Luciferase-coupled chemiluminescence kinase assay (ATP consumption)
Format: biochemical
settings: Table 1; class symbols per key; read-out: AKT-1 IC50
pIC50: −log10 of the molar value.
Recorded pIC50 for the following molecules

Here's what some known entries look like.
1) Cn1c(CCCO)nc2c(N3CCN(c4ncnc5[nH]nc(Br)c45)CC3)cc(C(F)(F)F)cc21 = 6.00 to 7.00
2) Cc1c(Br)cc(C(=O)Nc2ccccc2)cc1N1CCN(c2ncnc3[nH]nc(Br)c23)CC1 = 6.00 to 7.00

Per the record, Brc1n[nH]c2ncnc(N3CCN(c4ccccn4)CC3)c12 has pIC50 of 5.00 to 6.00

Per the record, Cc1c(OCCN2CCCC2)cc(Cl)cc1N1CCN(c2ncnc3[nH]nc(CC(C)C)c23)CC1 has pIC50 of 5.00 to 6.00

###

tested.on: UniProt P23443
assay.method.text: Luciferase-coupled chemiluminescence kinase assay (ATP consumption)
Type: biochemical
settings: Table 1; class symbols per key
pIC50: −log10 of the molar value.
Recorded pIC50 for the following compounds

Here's what some known entries look like.
1) CCCC(O)c1cc(NCCN2CCCC2)c(C)c(N2CCN(c3ncnc4[nH]nc(Br)c34)CC2)c1 (centres unmarked) = > 7.00
2) CCN(CC)CCCOc1cc(Cl)cc(N2CCN(c3ncnc4[nH]nc(Br)c34)CC2)c1C = > 7.00
3) Cc1c(OCCN2CCOCC2)cc(Cl)cc1N1CCN(c2ncnc3[nH]nc(C(F)(F)F)c23)CC1 = > 7.00

Per the record, CCc1ccccc1N1CCN(c2ncnc3[nH]nc(Br)c23)CC1 has pIC50 of 6.00 to 7.00

Per the record, Brc1n[nH]c2ncnc(N3CCN(c4ncccn4)CC3)c12 has pIC50 of 6.00 to 7.00

Per the record, Cc1c(CCCN2CCOCC2)cc(Cl)cc1N1CCN(c2ncnc3[nH]nc(Br)c23)CC1 has pIC50 of > 7.00

Per the record, Clc1ccc(N2CCN(c3ncnc4[nH]nc(Br)c34)CC2)cc1Cl has pIC50 of 6.00 to 7.00

Per the record, CCc1n[nH]c2ncnc(N3CCN(c4cc(F)cc(NCCN5CCCC5)c4Cl)CC3)c12 has pIC50 of > 7.00

Per the record, Cc1c(OCCN2CCN(C)CC2)cc(Cl)cc1N1CCN(c2ncnc3[nH]nc(Br)c23)CC1 has pIC50 of > 7.00

Per the record, Cc1cccc(C)c1N1CCN(c2ncnc3[nH]nc(Br)c23)CC1 has pIC50 of 6.00 to 7.00
